- Test system: Suptl cells (T-lymphocyte cell line)
- EXPERIMENT: Cytotoxicity assay (MTT)
- Format: cell-based
EXPERIMENTAL_ENDPOINT: CC50 (µM)
Please give a number only; it is taken to be in µM.

Asked: Returns the measured CC50 for the input molecule. Input: C[C@H](Cn1cnc2c(N)ncnc21)OCP(=O)(O)O [Tenofovir, reference compound]
Given back: 680

---

- EXPERIMENT: Cytotoxicity assay (MTT)
- Format: cell-based
- TEST_CONTEXT: human, Suptl cells (T-lymphocyte cell line); 50% cytotoxic concentration, 72 hours, MTT; read-out: CC50
EXPERIMENTAL_ENDPOINT: CC50 at 72 h

Asked: Returns the measured CC50 at 72 h for the input compound. Input: CC(C)CN(CC(O)C(Cc1ccccc1)NC(=O)OC1CCOC1)S(=O)(=O)c1ccc(-n2cc(CN3C(=O)C(=O)c4ccccc43)nn2)cc1 (stereo not shown) [Id]
Given back: > 100 µM

Asked: Returns the measured CC50 at 72 h for the input compound. Input: Cc1cn(C2CC(n3cc(CN4C(=O)C(O)(C#CC5CC5)c5ccccc54)nn3)C(CO)O2)c(=O)[nH]c1=O (stereo not shown) [IIa]
Given back: > 100 µM

Asked: Returns the measured CC50 at 72 h for the input compound. Input: Cc1cn(C2CC(n3cc(CN4C(=O)C(O)(C#CC5CC5)c5cc(Cl)ccc54)nn3)C(CO)O2)c(=O)[nH]c1=O (stereo not shown) [IIc]
Given back: > 100 µM

Asked: Returns the measured CC50 at 72 h for the input compound. Input: Cc1cn(C2CC(n3cc(CN4C(=O)C(=O)c5ccccc54)nn3)C(CO)O2)c(=O)[nH]c1=O (stereo not shown) [Ia]
Given back: > 100 µM

Asked: Returns the measured CC50 at 72 h for the input compound. Input: Cc1ccnc2c1NC(=O)c1cccnc1N2C1CC1 [Nevirapine, reference compound]
Given back: 895 µM

Asked: Returns the measured CC50 at 72 h for the input compound. Input: Cc1ccc2c(c1)C(O)(C#CC1CC1)C(=O)N2Cc1cn(C2CC(n3cc(C)c(=O)[nH]c3=O)OC2CO)nn1 (stereo not shown) [IIb]
Given back: > 100 µM

Asked: Returns the measured CC50 at 72 h for the input compound. Input: Cc1ccc2c(c1)C(=O)C(=O)N2Cc1cn(C2CC(n3cc(C)c(=O)[nH]c3=O)OC2CO)nn1 (stereo not shown) [Ib]
Given back: > 100 µM

Asked: Returns the measured CC50 at 72 h for the input compound. Input: Cc1cn(C2CC(n3cc(CN4C(=O)C(=O)c5cc(Cl)ccc54)nn3)C(CO)O2)c(=O)[nH]c1=O (stereo not shown) [Ic]
Given back: > 100 µM

Asked: Returns the measured CC50 at 72 h for the input compound. Input: O=C1Nc2ccc(Cl)cc2[C@@](C#CC2CC2)(C(F)(F)F)O1 [Efavirenz, reference compound]
Given back: 88 µM

Asked: Returns the measured CC50 at 72 h for the input compound. Input: Cc1ccc2c(c1)C(=O)C(=O)N2Cc1cn(-c2ccc(S(=O)(=O)N(CC(C)C)CC(O)C(Cc3ccccc3)NC(=O)OC3CCOC3)cc2)nn1 (stereo not shown) [Ie]
Given back: > 100 µM

---

- TARGET_ENTITY: recombinant HIV-1 reverse transcriptase (RTHXB2) (Human immunodeficiency virus type 1 group M subtype B)
- Construct: The enzyme is derived from a polyprotein encoded by the virus, processed by the viral protease
- EXPERIMENT: Reverse transcriptase inhibition activity (RDDP, [3H]dTTP incorporation)
- Assay type: biochemical
- TEST_CONTEXT: CC50 / CI50
EXPERIMENTAL_ENDPOINT: IS
Reply briefly: the number, and no unit.

Asked: Returns the measured IS for the input compound. Input: Cc1cn(C2CC(n3cc(CN4C(=O)C(F)(F)c5ccccc54)nn3)C(CO)O2)c(=O)[nH]c1=O (stereo not drawn) [IIIa]
Given back: 1392

Asked: Returns the measured IS for the input compound. Input: CCOP(=O)(Cn1cc(CN2C(=O)C(F)(F)c3ccccc32)nn1)OCC [IIId]
Given back: 1247

Asked: Returns the measured IS for the input compound. Input: Cc1cn(C2CC(n3cc(CN4C(=O)C(F)(F)c5cc(Cl)ccc54)nn3)C(CO)O2)c(=O)[nH]c1=O (stereo not drawn) [IIIc]
Given back: 1318

Asked: Returns the measured IS for the input compound. Input: CCOP(=O)(Cn1cc(CN2C(=O)C(F)(F)c3cc(Cl)ccc32)nn1)OCC [IIIf]
Given back: 2106

Asked: Returns the measured IS for the input compound. Input: C[C@H](Cn1cnc2c(N)ncnc21)OCP(=O)(O)O [Tenofovir, reference compound]
Given back: 567

Asked: Returns the measured IS for the input compound. Input: Cc1ccnc2c1NC(=O)c1cccnc1N2C1CC1 [Nevirapine, reference compound]
Given back: 746

---

Please provide measured IS for the entries that follow.
- TARGET_ENTITY: recombinant HIV-1 reverse transcriptase (RTHXB2) (Human immunodeficiency virus type 1 group M subtype B, UniProt P04585)
- Construct: The enzyme is derived from a polyprotein encoded by the virus, processed by the viral protease
- EXPERIMENT: Reverse transcriptase inhibition activity (RDDP, [3H]dTTP incorporation)
- Format: biochemical
- TEST_CONTEXT: CC50 / CI50

Asked: Returns the measured IS for the input compound. Input: "CCOP(=O)(Cn1cc(CN2C(=O)C(=O)c3ccccc32)nn1)OCC"
Given back: 1,782

Asked: Returns the measured IS for the input compound. Input: "CCOP(=O)(Cn1cc(CN2C(=O)C(=O)c3cc(C)ccc32)nn1)OCC"
Given back: 2,940

Asked: Returns the measured IS for the input compound. Input: Cc1cn([C@H]2C[C@H](N=[N+]=[N-])[C@@H](CO)O2)c(=O)[nH]c1=O [Zidovudine, reference compound]
Given back: 12,600
